Tested on: HL-60(TB) leukemia
assay_procedure: NCI-60 one-dose screen, 48 h (100 = growth as untreated, 0 = no growth, -100 = all killed)
measurement_conditions: 10 µM unless noted
About 83,000 compounds went through this panel and 20% of them were active in at least one assay; those are over-represented in the sample as a whole.
Binarize growth at 70%; below is satisfied, at or above is not satisfied.

{"columns": ["compound", "label_class"],
 "data": [
  ["CCCN1C(=O)N(CCC)C2C1NN=c1s/c(=C3\\C(=O)N(C(C)C)c4ccccc43)c(=O)n12 (stereo not given)", "satisfied"],
  ["CCN(CC)CCCNC(=O)c1c2c(n3ccccc13)C(=O)c1ncccc1C2=O", "satisfied"],
  ["N=C(N)c1ccc(-c2ccc(-c3ccccc3)o2)o1", "satisfied"],
  ["COc1cccc(/C=C2\\Oc3cc(OCCCN4CCCC4)ccc3C2=O)c1OC", "not satisfied"]
]}

Please determine if N#CCCc1ccc(O)cc1 is below 70% in terms of growth.
not satisfied

Please determine if CNCCNc1nc2ccccc2c2c(=O)c3cc(OC)ccc3sc12 is below 70% in terms of growth.
satisfied

Please determine if CC1CCCC(CC(N)=O)CC1 (stereo not given) is below 70% in terms of growth.
not satisfied

Please determine if Cc1[nH]c(C(=O)Nc2ccc(C(N)=O)cc2NC(C)C)c(Cl)c1Cl is below 70% in terms of growth.
not satisfied

Please determine if CCCC(=O)Oc1ccc2ccccc2c1 is below 70% in terms of growth.
not satisfied

---

System: HL-60(TB) leukemia
assay_procedure: NCI-60 one-dose screen, 48 h (100 = growth as untreated, 0 = no growth, -100 = all killed)
measurement_conditions: 10 µM unless noted
Compounds without any hit were thinned out: in the full panel of roughly 83,000, 20% have a hit.
Rule: growth under -10% gives -1, otherwise 1.

{"columns": ["molecule", "test_target", "label_class"],
 "data": [
  ["COc1ccc(C(=O)COc2ccc(/C=C3\\COc4ccc(OC)cc4C3=O)cc2)cc1", "HL-60(TB) leukemia", 1]
]}

Given the entry O=C(Nc1ccccc1O)c1ccc(Oc2cccc(C(=O)Nc3ccccc3O)c2)cc1 , answer whether its growth meets or surpasses -10%.
-1

Given the entry COc1ccc(Nc2ncnc3c2sc2nc(C)cc(C)c23)cc1 , answer whether its growth meets or surpasses -10%.
1

Given the entry COC(=O)[C@]1(C)CCC[C@]2(C)[C@H]3C[C@@H]4[C@H]5[C@@H]6CC/C(=N\OCC/C(N)=N/O)[C@H]5[C@@]3(CC[C@H]21)CC4(C(C)C)O6 , answer whether its growth meets or surpasses -10%.
1

Given the entry CC(=O)c1c(C)[nH]c(-c2nc3ccc(N4CCN(C)CC4)cc3[nH]2)c1-c1ccc2c(c1)OCCO2 , answer whether its growth meets or surpasses -10%.
1

Given the entry O=C1Cc2c([nH]c3ccc([N+](=O)[O-])cc23)-c2ccccc2N1 , answer whether its growth meets or surpasses -10%.
-1

---

System: NCI-H23 lung
assay_procedure: NCI-60 one-dose screen, 48 h
measurement_conditions: 10 µM unless noted
This is part of a sample that, as a whole, favours compounds with a hit. Of some 83,000 tested, about 20% had one in any assay. Calls of active or inactive are those of the source. How the source made its calls: active means growth percent below 10; inactive means the rest.
One label from this list, please: 1 = active, 0 = inactive

Use these answered entries as a reference point.
{"columns": ["molecule", "label_class"],
 "data": [
  ["COc1cccc2c1C(=O)c1c(O)c3c(c(O)c1C2=O)CC(O)(/C(C)=N/NC(=O)CCC(=O)N/N=C(\\C)C1(O)Cc2c(O)c4c(c(O)c2C(OC2CC(N)C(O)C(C)O2)C1)C(=O)c1c(OC)cccc1C4=O)CC3OC1CC(N)C(O)C(C)O1 (centres undefined)", 1],
  ["CCOc1ccc(C(O)CN(C)Cc2ccccc2)cc1Cl (centres undefined)", 0],
  ["O=C1NC(=S)NC(=O)C1=Cc1ccccc1", 0],
  ["NC(=O)SCC(=O)Nc1ccc([As](=O)(O)O)cc1", 0],
  ["O=c1cc[nH]c(=O)o1", 0]
]}

Per the records of this test, what outcome belongs to CCN(CC)c1ccc(C=C2C(=O)NC(=S)NC2=O)cc1 ?
0

Per the records of this test, what outcome belongs to ClCCN(CCCl)C(c1ccccc1)c1ccc(Cl)cc1 (centres undefined) ?
0

Per the records of this test, what outcome belongs to c1ccc2nc(OCCN3CC3)ccc2c1 ?
0

Per the records of this test, what outcome belongs to CC(=O)O[C@H]1CC[C@H]2[C@@H]3CC[C@H]4CC=C(C)C[C@]4(C)[C@H]3CC[C@]12C ?
0

Per the records of this test, what outcome belongs to O=C(O)CC(Br)C(=O)CBr (centres undefined) ?
0

Per the records of this test, what outcome belongs to C[C@]12CCC(=O)CC1CC[C@@H]1C2CC[C@@]2(C)C1CC[C@@H]2OC(=O)CC[Se][Se]CCC(=O)O[C@H]1CCC2[C@@H]3CCC4CC(=O)CC[C@]4(C)C3CC[C@@]21C (some centres undefined) ?
0

Per the records of this test, what outcome belongs to CC1(C)CC(=O)CC(C)(C)N1N=O ?
0

Per the records of this test, what outcome belongs to C=C=[CH][Sn]([c]1ccccc1)([c]1ccccc1)[c]1ccccc1 ?
1

Per the records of this test, what outcome belongs to O=C(O)c1cccc(CCl)c1 ?
0

Per the records of this test, what outcome belongs to O=C(CC1(O)C(=O)Nc2ccc(F)cc21)c1ccc(C(=O)NCC2CCC3(CC2)OOC2(CCCCC2)OO3)cc1 (centres undefined) ?
0

Per the records of this test, what outcome belongs to C[C@@H]1O[C@@H](O[C@H]2CC[C@@]3(C)[C@H](CCC4[C@@H]3C(O)C[C@]3(C)[C@@H](c5ccc(=O)oc5)CC[C@]43O)C2)[C@H](O)[C@H](O)[C@H]1O (some centres undefined) ?
1

Per the records of this test, what outcome belongs to CNC(C)Cc1ccccc1 (centres undefined) (tested in a mixture with another compound) ?
0

Per the records of this test, what outcome belongs to CC1(C)N=C(N)N=C(N)N1c1ccc(CCCCc2ccc(S(=O)(=O)F)cc2)c(Cl)c1 ?
0

Per the records of this test, what outcome belongs to CCCCCCCCCCCCOc1ccc(C(=O)Oc2ccc(CSP3(=O)OCC4OC(n5cnc6c(N)ncnc65)C(F)C4OP(=O)(O)OCC4OC(n5ccc(=O)[nH]c5=O)C(F)C4O3)cc2)cc1 (centres undefined) ?
0

Per the records of this test, what outcome belongs to C[C@]12CC[C@H]3[C@@H](C[C@@H]4N=C(c5ccc(O)cc5)S[C@@]45C[C@H](O)CC[C@]35C)[C@@H]1CC[C@@H]2O ?
0

Per the records of this test, what outcome belongs to C[C@]12CCc3sc(-c4ccc(Cl)cc4)nc3C1=CC[C@@H]1[C@@H]2CC[C@]2(C)C(=O)CC[C@@H]12 ?
0

Per the records of this test, what outcome belongs to CC(N)Cc1ccc(O)cc1 (centres undefined) ?
0

Per the records of this test, what outcome belongs to Cc1ccc(C(=O)C2CN(C)CCC2(O)c2ccc(C)cc2)cc1 (centres undefined) ?
0

Per the records of this test, what outcome belongs to S=P(Nc1ccccc1)(Nc1ccccc1)c1ccccc1 ?
0
